# Target of assay: late-stage gametocytes (NF54-PfS16-GFP-Luc)
# Test protocol: Luciferase reporter assay, late-stage gametocytes
# Assay type: cell-based, Plasmodium falciparum
# Conditions: gametocyte stage not specified; read-out: gametocidal activity IC50
Parameter: IC50

Answer with reported IC50 of `OCCN(CCO)C1=NC(c2ccccc2)=[O+][Pt-2]2([S]1)[n+]1ccc(C(F)(F)F)cc1-c1cc(C(F)(F)F)cc[n+]12.[Cl-]`
< 5 µM

* * *

# Tested on: PfNF54 ABS parasites
# Test protocol: SYBR Green I-based proliferative assay, PfNF54 ABS parasites
# Assay type: cell-based, Plasmodium falciparum
# Conditions: ABS, SYBR Green I, 96 h; mean ± S.E., N = 3 (no S.E.: N = 1)
# Protocol: The parasites were incubated under drug […] incubation, parasite survival was determined by adding equal volumes of parasite suspension (100 µL) and SYBR Green I lysis buffer (0.2% µL/mL of 10 000x SYBR Green I, 20 mM Tris-HCl, pH 7.5, 5 mM EDTA, 0.008% saponin (w/v) and 0.08% Triton x-100). This was incubated for 1 hour at room temperature in the dark. […]
pIC50: −log10 of the molar value.
Parameter: pIC50

Solved entries (count: 2):
• OCCN(CCO)C1=NC(c2ccccc2)=[O+][Pt-2]2([S]1)[n+]1ccc(O)cc1-c1cc(O)cc[n+]12.[Cl-] = < 5.30
• OCCN(CCO)C1=NC(c2ccccc2)=[O+][Pt-2]2([S]1)[n+]1ccc(Cl)cc1-c1cc(Cl)cc[n+]12.[Cl-] = < 5.30

State recorded pIC50 with PfNF54 ABS parasites, entry `CNC(=O)c1cc[n+]2c(c1)-c1cc(C(=O)NC)cc[n+]1[Pt-2]21[O+]=C(c2ccccc2)N=C(N(CCO)CCO)[S]1.[Cl-]` , no comment.
< 5.30
